assay: Thiol pKa by UV/vis absorbance at 230 nm; format: physicochemical; conditions: Britton-Robinson Universal Buffer
result.type: pKa
Respond numerically, and do not add a unit to the figure.

Q: State its pKa for this molecule: COC(=O)C(C)(C)S [compound 16, Methyl 2-mercapto-2-methylpropanoate]
Ans: 8.01
